Attribute: IC50
target system: full-length beta-Catenin (Uniprot ID P35222) (Homo sapiens, UniProt P35222)
Construct: 10 nM full-length beta-Catenin (Uniprot ID P35222)
Sequence (P35222 whole entry): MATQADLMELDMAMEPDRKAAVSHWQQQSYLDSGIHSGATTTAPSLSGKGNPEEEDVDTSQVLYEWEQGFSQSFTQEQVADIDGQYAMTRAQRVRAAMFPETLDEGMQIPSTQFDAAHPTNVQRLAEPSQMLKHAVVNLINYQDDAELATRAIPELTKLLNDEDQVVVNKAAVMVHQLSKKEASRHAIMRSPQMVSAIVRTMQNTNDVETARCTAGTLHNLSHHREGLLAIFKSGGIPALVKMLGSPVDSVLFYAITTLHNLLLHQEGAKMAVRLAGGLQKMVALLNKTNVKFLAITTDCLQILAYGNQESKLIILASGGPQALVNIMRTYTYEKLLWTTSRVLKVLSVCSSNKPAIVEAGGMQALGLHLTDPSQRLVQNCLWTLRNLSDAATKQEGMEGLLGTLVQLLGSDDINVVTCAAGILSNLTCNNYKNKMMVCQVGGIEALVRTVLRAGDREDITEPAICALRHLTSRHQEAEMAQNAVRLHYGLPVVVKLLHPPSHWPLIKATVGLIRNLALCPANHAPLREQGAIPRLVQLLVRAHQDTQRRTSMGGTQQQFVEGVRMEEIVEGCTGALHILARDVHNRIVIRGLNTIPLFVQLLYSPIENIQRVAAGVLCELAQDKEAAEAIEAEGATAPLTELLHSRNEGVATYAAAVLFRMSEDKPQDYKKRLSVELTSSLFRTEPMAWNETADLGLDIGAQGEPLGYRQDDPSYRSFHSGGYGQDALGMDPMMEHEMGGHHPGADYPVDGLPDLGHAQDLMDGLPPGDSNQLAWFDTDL
protocol notes: Fluorescence polarization IC50 (beta-catenin / 5FAM-TCF4 10-53 competition)
Type: binding
test conditions: fluorescence polarization; read-out: beta-Catenin FP IC50
Quick reminder: number only, in nM, skip the unit.

Solved cases (2 shown):
>  <molecule>
CC[C@H](C)[C@@H]1NC(=O)[C@H](CC(=O)O)NC(=O)[C@]2(CC=CCCCC3(CCCC=CCCCCCC[C@@](C)(C(=O)N[C@@H](Cc4ccccc4)C(=O)N[C@@H](Cc4csc5ccccc45)C(=O)N[C@@H](CCC(N)=O)C(N)=O)NC(=O)[C@H](CCC(N)=O)NC(=O)[C@H](Cc4ccccc4)NC(=O)[C@H](C)NC(=O)[C@H](C)NC(=O)[C@H](CCC(=O)O)NC(=O)[C@H](CC(=O)O)NC3=O)NC1=O)CCCN2S(C)(=O)=O (stereo partly drawn) [I-710]

>  <test value>
73

$$$$
>  <molecule>
COCCC(=O)N1CCC[C@]12CC=CCCCC1(CCCC=CCCCOC(=O)N3CC[C@@](C(=O)N[C@@H](Cc4ccccc4Cl)C(=O)N[C@@H](Cc4csc5ccccc45)C(=O)N[C@@H](C(N)=O)[C@H](C)O)(C3)NC(=O)[C@H](CC(N)=O)NC(=O)[C@H](Cc3ccccc3)NC(=O)[C@H](C)NC(=O)[C@H](C)NC(=O)[C@H](CC(=O)O)NC(=O)[C@H](CC(=O)O)NC1=O)NC(=O)[C@H](CC(C)(C)C)NC(=O)[C@H](CC(=O)O)NC2=O (stereo partly drawn)

>  <test value>
10

$$$$

Input: # return recorded IC50 for entry CC(=O)N1CC2CC1C(=O)N[C@@H](CC(=O)O)C(=O)N[C@@H](CC(C)(C)C)C(=O)NC1(CCCC=CCCCOC(=O)N3CC[C@@](C(=O)N[C@@H](Cc4ccccc4Cl)C(=O)N[C@@H](Cc4csc5ccccc45)C(=O)N[C@@H](CCC(N)=O)C(N)=O)(C3)NC(=O)[C@H]([C@@H](C)O)NC(=O)[C@H](Cc3ccccc3)NC(=O)[C@H](C)NC(=O)[C@H](C)NC(=O)[C@H](CN(CC(=O)O)CC(F)(F)F)NC(=O)[C@H](CC(=O)O)NC1=O)CCCC=CCCC(=O)O2 (stereo partly drawn)
Output: 38

====

protocol notes: CHI Log D procedure
Type: physicochemical
test conditions: pH 7.4
readout label: CHI Log D
Please give only the number in your answer, with no unit.

>  <molecule>
CC(=O)N1CCC[C@]12CC=CCCCC1(CCCC=CCCCCCC[C@@](C)(C(=O)N[C@@H](Cc3ccccc3)C(=O)N[C@@H](Cc3csc4ccccc34)C(=O)N[C@@H](CCC(N)=O)C(N)=O)NC(=O)[C@H](CC(N)=O)NC(=O)[C@H](Cc3ccccc3)NC(=O)[C@H](C)NC(=O)[C@H](C)NC(=O)[C@H](CCC(=O)O)NC(=O)[C@H](CC(=O)O)NC1=O)NC(=O)[C@H](C)NC(=O)[C@H](CC(=O)O)NC2=O (stereo partly drawn) [I-425]

>  <test value>
2.01

$$$$
>  <molecule>
COc1ccccc1C[C@H](NC(=O)[C@]1(C)CCCCCCC=CCCCC2(CCCC=CC[C@]3(CCCN3C(C)=O)C(=O)N[C@@H](CC(=O)O)C(=O)N[C@@H](C)C(=O)N2)C(=O)N[C@@H](CC(=O)O)C(=O)N[C@@H](CCC(=O)O)C(=O)N[C@@H](C)C(=O)N[C@@H](C)C(=O)N[C@@H](Cc2ccccc2)C(=O)N[C@@H](CCC(N)=O)C(=O)N1)C(=O)N[C@@H](Cc1csc2ccccc12)C(=O)N[C@@H](CCC(N)=O)C(N)=O (stereo partly drawn) [I-526]

>  <test value>
2.049

$$$$
>  <molecule>
CC(=O)N1CCC[C@]12CC=CCCCC1(CCCC=CCCCCCC[C@@](C)(C(=O)N[C@@H](Cc3ccc(C(N)=O)cc3)C(=O)N[C@@H](Cc3csc4ccccc34)C(=O)N[C@@H](CCC(N)=O)C(N)=O)NC(=O)[C@H](C(C)C)NC(=O)[C@H](Cc3ccccc3)NC(=O)[C@H](C)NC(=O)[C@H](C)NC(=O)[C@H](CC(=O)O)NC(=O)[C@H](CC(=O)O)NC1=O)NC(=O)[C@H](C)NC(=O)[C@H](CC(=O)O)NC2=O (stereo partly drawn) [I-338]

>  <test value>
1.586

$$$$
>  <molecule>
CC(=O)N1CCC[C@]12CC=CCCCC1(CCCC=CCCCCCC[C@@](C)(C(=O)N[C@@H](Cc3ccccc3Cl)C(=O)N[C@@H](Cc3csc4ccccc34)C(=O)N[C@@H](CCO)C(N)=O)NC(=O)[C@H](CO)NC(=O)[C@H](Cc3ccccc3)NC(=O)[C@H](C)NC(=O)[C@H](C)NC(=O)[C@H](CN(CC(=O)O)CC(F)(F)F)NC(=O)[C@H](CC(=O)O)NC1=O)NC(=O)[C@H](CC(C)(C)C)NC(=O)[C@H](CC(=O)O)NC2=O (single isomer, unassigned) [I-999]

>  <test value>
2.941

$$$$
>  <molecule>
CC(=O)N1CCC[C@]12CC=CCCCC1(CCCC=CCCCOC(=O)N3CC[C@@](C(=O)N[C@@H](Cc4ccsc4)C(=O)N[C@@H](Cc4csc5ccccc45)C(=O)N[C@@H](Cc4c[nH]cn4)C(N)=O)(C3)NC(=O)[C@H](CC(N)=O)NC(=O)[C@H](Cc3ccccc3)NC(=O)[C@H](C)NC(=O)[C@H](C)NC(=O)[C@H](CN(CC(=O)O)CC(F)(F)F)NC(=O)[C@H](CC(=O)O)NC1=O)NC(=O)[C@H](CC(C)(C)C)NC(=O)[C@H](CC(=O)O)NC2=O (stereo partly drawn) [I-769]

>  <test value>
2.307

$$$$
>  <molecule>
CC(=O)N1CCC[C@]12CC=CCCCC1(CCCC=CCCCCCC[C@@](C)(C(=O)N[C@@H](Cc3ccccc3)C(=O)N[C@@H](Cc3c[nH]c4ccccc34)C(=O)N[C@@H](CCC(N)=O)C(N)=O)NC(=O)[C@H](C(C)C)NC(=O)[C@H](Cc3c[nH]cn3)NC(=O)[C@H](C)NC(=O)[C@H](C)NC(=O)[C@H](CC(=O)O)NC(=O)[C@H](CC(=O)O)NC1=O)NC(=O)[C@H](C)NC(=O)[C@H](CC(=O)O)NC2=O (stereo partly drawn)

>  <test value>
2.073

$$$$

Input: # return recorded CHI Log D for entry CC(=O)N[C@@H](Cc1ccccc1)C(=O)N[C@@H](CC(=O)O)C(=O)N[C@@H](C)C(=O)N[C@]1(C)CCCCCCC=CCOC(=O)N2CC[C@@](C(=O)N[C@@H](Cc3ccccc3)C(=O)N[C@@H](Cc3c[nH]c4ccccc34)C(=O)N[C@@H](CCC(N)=O)C(N)=O)(C2)NC(=O)[C@H](C(C)C)NC(=O)[C@H](Cc2ccccc2)NC(=O)[C@H](C)NC(=O)[C@H](C)NC(=O)[C@H](Cc2cccnc2)NC(=O)[C@H](CC(=O)O)NC1=O (single isomer, unassigned)
Output: 1.661

Input: # return recorded CHI Log D for entry CC(=O)N1CCC[C@]12CC=CCCCC1(CCCC=CCCCCCC[C@@](C)(C(=O)N[C@@H](Cc3ccccc3)C(=O)N[C@@H](Cc3c[nH]c4ccccc34)C(=O)N[C@@H](CCC(N)=O)C(N)=O)NC(=O)[C@H](C(C)C)NC(=O)[C@H](Cc3ccccc3)NC(=O)[C@H](C)NC(=O)[C@H](C)NC(=O)[C@H](CC(=O)O)NC(=O)[C@H](C)NC1=O)NC(=O)[C@H](C)NC(=O)[C@H](CC(=O)O)NC2=O (stereo partly drawn) [I-351]
Output: 2.944

Input: # return recorded CHI Log D for entry CC[C@H](C)[C@@H]1NC(=O)[C@H](CC(=O)O)NC(=O)[C@]2(CC=CCCCC3(CCCC=CCCCCCC[C@@](C)(C(=O)N[C@@H](Cc4ccccc4)C(=O)N[C@@H](Cc4csc5ccccc45)C(=O)N[C@@H](CCC(N)=O)C(N)=O)NC(=O)[C@H](CCC(N)=O)NC(=O)[C@H](Cc4ccccc4)NC(=O)[C@H](C)NC(=O)[C@H](C)NC(=O)[C@H](CN(CC(=O)O)CC(F)(F)F)NC(=O)[C@H](CC(=O)O)NC3=O)NC1=O)CCCN2C(C)=O (stereo partly drawn) [I-611]
Output: 2.595
